B1: TPR t1 (parent)
chain: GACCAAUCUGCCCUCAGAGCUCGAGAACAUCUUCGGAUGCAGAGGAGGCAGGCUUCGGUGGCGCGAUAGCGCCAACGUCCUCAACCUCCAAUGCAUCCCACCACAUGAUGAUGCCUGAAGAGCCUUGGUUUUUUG

# Variants of: B1
# Assay summary: polymerase ribozyme fitness, log enrichment relative to wild type (log ratio); higher = more active; in vitro selection for triplet polymerase activity
Would you please tag the item criterion met when its polymerase ribozyme fitness (log ratio) is -2 or above, and criterion not met when it is below?

Solved cases below.
>>> print(df.to_string())
              mutation   class_assignment
0            C34A C76A  criterion not met
1      U87G U92A G110A  criterion not met
2  C12A G57U A91G U96A  criterion not met

Check if polymerase ribozyme fitness (log ratio) >= -2 (inclusive). Item: A27U G60U G63A U109A C124U
criterion not met

Check if polymerase ribozyme fitness (log ratio) >= -2 (inclusive). Item: G113U G122A
criterion not met

Check if polymerase ribozyme fitness (log ratio) >= -2 (inclusive). Item: A29U C79A
criterion not met

Check if polymerase ribozyme fitness (log ratio) >= -2 (inclusive). Item: C73G G117A A121U
criterion met
